pKd listing for selected binders.
target or system: T1, Notch2Long (Notch2 EGF6-EGF12) (human, UniProt Q04721 219-418, biotin via the N-terminal Avi tag (enzymatic biotinylation))
T1 construct: also called N2L protein; hNotch2; not shown: Avi tag, N-terminal, kept
T1 sequence (looked up): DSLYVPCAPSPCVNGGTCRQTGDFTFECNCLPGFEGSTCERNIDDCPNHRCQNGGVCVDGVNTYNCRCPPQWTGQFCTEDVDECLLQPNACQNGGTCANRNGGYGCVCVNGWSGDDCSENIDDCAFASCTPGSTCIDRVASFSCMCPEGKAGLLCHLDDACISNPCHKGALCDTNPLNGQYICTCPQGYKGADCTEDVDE
experimental protocol: SPR
condition notes: both partners purified
The quantity pKd is defined as the negative base-10 logarithm of the molar concentration.

| binder | measurement kind | value measured |
| --- | --- | --- |
| GCGWTLRHCKQDSDCLAGCVCEPKWMCG (designed binder) [N2L.EET03.1867] | pKd | 5.02 |
| GCGWTLRHCKQDSDCLAGCVCKPKWTCG (designed binder) [N2L.EET03.34] | pKd | 5.07 |

Continue with the binder presented below.
Q) Please report the measured pKd for GCGWTLRHCKQDSDCLAGCVCEPIWWCG (designed binder) [N2L.EET03.18]
A) 5.05

Origin of values: paper PMC10977697
